B1: library; numbered along this chain (parent)
chain: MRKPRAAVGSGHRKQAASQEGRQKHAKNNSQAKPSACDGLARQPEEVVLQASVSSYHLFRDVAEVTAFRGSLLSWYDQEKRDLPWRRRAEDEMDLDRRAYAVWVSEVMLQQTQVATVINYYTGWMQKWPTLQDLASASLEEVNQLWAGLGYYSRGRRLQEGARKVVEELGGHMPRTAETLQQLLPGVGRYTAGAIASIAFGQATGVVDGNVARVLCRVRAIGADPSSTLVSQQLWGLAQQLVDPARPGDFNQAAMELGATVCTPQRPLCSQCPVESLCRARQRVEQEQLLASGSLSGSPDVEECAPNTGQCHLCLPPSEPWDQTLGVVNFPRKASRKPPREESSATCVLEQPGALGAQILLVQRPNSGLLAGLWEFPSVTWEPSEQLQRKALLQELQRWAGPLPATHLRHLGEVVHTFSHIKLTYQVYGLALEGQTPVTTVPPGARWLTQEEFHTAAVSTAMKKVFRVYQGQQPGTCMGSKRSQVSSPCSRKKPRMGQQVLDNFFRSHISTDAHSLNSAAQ

Variants of: B1
Experiment: 8OG:A repair function score (normalized; synonymous = 0, nonsense = -1) (normalized log-likelihood score); higher = more repair activity (WT-like);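 further: cells sorted at 72 h after reporter transfection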
Details: with 8OG:A DNA repair reporter (GFP) in HEK-293 MUTYH KO cells
# binarize 8OG:A repair function score: threshold -0.2 inclusive, high side true, low side false

Confirm if 8OG:A repair function score reported for the variant `E302W` is -0.2 or above.
false

Confirm if 8OG:A repair function score reported for the variant `L58Q` is -0.2 or above.
true

Confirm if 8OG:A repair function score reported for the variant `H416S` is -0.2 or above.
true

Confirm if 8OG:A repair function score reported for the variant `P306Y` is -0.2 or above.
true

Confirm if 8OG:A repair function score reported for the variant `E382W` is -0.2 or above.
true

Confirm if 8OG:A repair function score reported for the variant `S459E` is -0.2 or above.
false

Confirm if 8OG:A repair function score reported for the variant `L277H` is -0.2 or above.
true

Confirm if 8OG:A repair function score reported for the variant `L392Y` is -0.2 or above.
false

Confirm if 8OG:A repair function score reported for the variant `R482Q` is -0.2 or above.
true

Confirm if 8OG:A repair function score reported for the variant `V379C` is -0.2 or above.
false

Confirm if 8OG:A repair function score reported for the variant `L215Y` is -0.2 or above.
true

Confirm if 8OG:A repair function score reported for the variant `F200I` is -0.2 or above.
false

Confirm if 8OG:A repair function score reported for the variant `C262Y` is -0.2 or above.
false

Confirm if 8OG:A repair function score reported for the variant `R281G` is -0.2 or above.
false

Confirm if 8OG:A repair function score reported for the variant `S515A` is -0.2 or above.
true

Confirm if 8OG:A repair function score reported for the variant `A99V` is -0.2 or above.
false

Confirm if 8OG:A repair function score reported for the variant `V206I` is -0.2 or above.
true

Confirm if 8OG:A repair function score reported for the variant `P267Q` is -0.2 or above.
false

Confirm if 8OG:A repair function score reported for the variant `F504Y` is -0.2 or above.
true

Confirm if 8OG:A repair function score reported for the variant `V328C` is -0.2 or above.
true

Confirm if 8OG:A repair function score reported for the variant `H410L` is -0.2 or above.
false

Confirm if 8OG:A repair function score reported for the variant `G205I` is -0.2 or above.
false
